The measured values listed here are drawn from patent US10287288B2.

What follows is a collection of pKi values obtained with purified human Factor XIa (Homo sapiens).
Sequence (P03951 388-625 limits assumed): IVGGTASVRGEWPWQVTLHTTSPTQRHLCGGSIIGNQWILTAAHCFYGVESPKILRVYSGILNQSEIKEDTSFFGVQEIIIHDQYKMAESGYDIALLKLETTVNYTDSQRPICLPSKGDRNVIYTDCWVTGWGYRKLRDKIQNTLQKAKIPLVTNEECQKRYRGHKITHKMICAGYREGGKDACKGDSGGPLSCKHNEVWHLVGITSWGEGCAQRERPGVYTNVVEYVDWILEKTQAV
Sequence (P03951 19-387 partner limits assumed): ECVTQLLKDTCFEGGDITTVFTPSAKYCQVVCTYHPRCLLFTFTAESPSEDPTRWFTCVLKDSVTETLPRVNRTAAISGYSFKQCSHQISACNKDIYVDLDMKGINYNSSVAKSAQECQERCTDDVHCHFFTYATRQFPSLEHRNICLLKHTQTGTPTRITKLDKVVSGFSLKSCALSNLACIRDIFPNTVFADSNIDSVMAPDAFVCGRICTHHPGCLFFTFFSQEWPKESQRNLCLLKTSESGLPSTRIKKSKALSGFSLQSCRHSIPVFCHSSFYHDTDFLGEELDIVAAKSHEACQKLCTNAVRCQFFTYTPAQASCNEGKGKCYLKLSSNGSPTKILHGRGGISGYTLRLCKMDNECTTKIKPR
pKi: −log10 of the molar value.
Observable: pKi

(1) Cc1c(C(=O)N[C@H]2CCC[C@@H](C)C(=O)N[C@@H](CC#N)Cc3cccc2c3)ncn1-c1cccc(Cl)c1F [Example 6]
(2) O=C1NCCCCC[C@H](n2cnc(-c3cc(Cl)ccc3-n3cc(Cl)nn3)cc2=O)c2cc(ccn2)[C@@H]2C[C@H]12 [Example 34]
(3) O=C1CCCc2ccnc(c2)[C@@H](n2cnc(-c3cc(Cl)ccc3-n3cc(Cl)nn3)cc2=O)CCCCCN1 [Example 32]
Using measured pKi, arrange the compounds from above in descending sequence. Please list each label once, in the requested order.
3, 2, 1
(3: 7.56, 2: 7.02, 1: 6.01)
